assayDetails: Phase 1 Stage 1 clinical pharmacokinetics of SC ZA co-administered with rHuPH20
Assay type: in vivo, human
particulars: human, serum, sc, ZA 0.25 mg SC + 24000 U rHuPH20; mean, n=3; read-out: Vss/F
recordedEndpoint: Vd/F (L/kg)
The figure you give is taken to be in L/kg; do not add the unit.

Task: Which value of Vd/F has been reported for O=P(O)(O)C(O)(Cn1ccnc1)P(=O)(O)O [ZA] in the records?
Result: 0.411

###

assayDetails: Pharmacokinetics of ZA in pig serum after IV or SC infusion with or without rHuPH20 (LC-MS-MS, non-compartmental analysis)
Type: in vivo
particulars: female, Yorkshire, pig, serum, sc, […], pig; SC ZA […], no rHuPH20 (Study Group 2); n=4; read-out: Vz/F, median
recordedEndpoint: Vd/F (L/kg)
The figure you give is taken to be in L/kg; do not add the unit.

Task: Which value of Vd/F has been reported for O=P(O)(O)C(O)(Cn1ccnc1)P(=O)(O)O in the records?
Result: 0.832
